TARGET UNDER TEST: Gα12 (Homo sapiens)
Sequence (Q03113 whole entry): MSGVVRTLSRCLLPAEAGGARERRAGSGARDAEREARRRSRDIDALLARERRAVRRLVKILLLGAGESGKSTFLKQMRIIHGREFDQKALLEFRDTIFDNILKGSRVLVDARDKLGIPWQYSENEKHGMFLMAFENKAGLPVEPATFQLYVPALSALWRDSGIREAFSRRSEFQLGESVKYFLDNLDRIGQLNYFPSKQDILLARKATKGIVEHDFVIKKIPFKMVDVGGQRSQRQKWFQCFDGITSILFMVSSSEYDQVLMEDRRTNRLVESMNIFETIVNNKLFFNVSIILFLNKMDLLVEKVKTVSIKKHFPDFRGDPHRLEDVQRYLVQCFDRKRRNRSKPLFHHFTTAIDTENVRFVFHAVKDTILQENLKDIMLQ
ASSAY SUMMARY: Gα12 luciferase reporter assay in hTERT-SRE immortalized airway smooth muscle cells, carbachol stimulated
Format: cell-based
TEST PARAMETERS: carbachol (CCh) stimulated, dose response
Text: FIGS. 1A-1C show an experimental approach to the identification of Gα12 modulators using hTERT-SRE human telomerase reverse transcriptase immortalized airway smooth muscle cells. […] FIG. 1C: provides a detailed schematic showing the downstream effects of Gα12/13 activation and/or inhibition, wherein serum response element (SRE) may be detected by a luciferase assay, and pAKT and pMLC may be detected by Western blotting. […]
QUANTITY KIND: modulation of Gα12 luciferase reporter signal (agonist/antagonist)

Cc1ccc(Cc2ccc(C3CN(C(=O)c4cnc(C)cn4)CCO3)nc2)cc1 (stereo not shown): Gα12 antagonists
CCN1CCC(CC(=O)N2CCOC(c3ccc(-c4cccc(OC)c4)cn3)C2)CC1 (stereo not shown): Gα12 antagonists
